- Assayed target: Recombinant human PKC-theta (His-tagged 362-706) (Homo sapiens (Human))
- Sequence (Q04759 362-706): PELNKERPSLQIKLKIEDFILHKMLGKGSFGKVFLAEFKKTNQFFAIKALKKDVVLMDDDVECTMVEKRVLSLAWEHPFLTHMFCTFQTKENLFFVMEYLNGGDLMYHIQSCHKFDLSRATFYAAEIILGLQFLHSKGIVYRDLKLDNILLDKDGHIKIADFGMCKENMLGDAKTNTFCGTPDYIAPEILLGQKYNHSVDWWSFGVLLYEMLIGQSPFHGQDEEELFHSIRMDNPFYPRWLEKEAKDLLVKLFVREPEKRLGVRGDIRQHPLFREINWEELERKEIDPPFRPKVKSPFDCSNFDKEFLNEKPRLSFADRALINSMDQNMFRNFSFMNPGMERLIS
- Protocol summary: PKC-theta inhibition assay (HTRF KinEASE kit)
- Type: biochemical
- Measurement setup: ATP 6.5 μM, binned A to H, read-out: PKC-theta HTRF pIC50 (binned) (converted)
Structures can show the parent of a compound that is named as a salt.
Reported property: IC50

## Task Please give the measured IC50 for this compound: CC1(C)C(=O)Nc2nccc(-c3ccn(C4CCNCC4)c3)c21
## Result 31.6 to 100 nM

## Task What do you have for C[C@@]1(O)C(=O)Nc2nccc(-c3nn(C4(CC#N)CNC4)c4ccccc34)c21 (single isomer, unassigned) ?
## Result 3.16 to 10 nM

## Task What do you have for CC1(C)C(=O)Nc2nccc(-c3nn([C@H]4CCNC4)c4ccccc34)c21 [Example 16, Dihydrochloride] ?
## Result 3.16 to 10 nM

## Task What do you have for CC1(C)C(=O)Nc2nccc(-c3nn(C[C@H]4COCCN4)c4ccccc34)c21 ?
## Result 10 to 31.6 nM

## Task What do you have for CN[C@@]1(C)C(=O)Nc2nccc(-c3nn(C4(CC#N)CCC4)c4ccccc34)c21 (single isomer, unassigned) ?
## Result 3.16 to 10 nM

## Task What do you have for CC[C@@]1(C)C(=O)Nc2nccc(-c3nn([C@@H]4CCNC[C@@H]4F)c4ccccc34)c21 (single isomer, unassigned) ?
## Result 10 to 31.6 nM

## Task What do you have for CN1CCOCC1(C)Cn1nc(-c2ccnc3c2C(C)(C)C(=O)N3)c2ccccc21 (stereo not shown) ?
## Result 10 to 31.6 nM

Values from patent US20240239794A1
